Where these numbers come from: ChEMBL document CHEMBL4680254

method.summary: Half life in Sprague-Dawley rat at 5 mg/kg, iv
Type: ADME, organism-based
recorded.conditions: in vivo
readout: half-life (h)

>>> quantitative_result("O=C(CN1CCN(C(=O)C2CC2)CC1)Nc1ccc(Oc2cc(=O)[nH]c3ccccc23)c(F)c1")
4.39

----------
method.summary: Tmax in Sprague-Dawley rat at 5 mg/kg, po
Assay type: ADME, organism-based
recorded.conditions: in vivo
readout: Tmax (h)

>>> quantitative_result("O=C(CN1CCN(C(=O)C2CC2)CC1)Nc1ccc(Oc2cc(=O)[nH]c3ccccc23)c(F)c1")
4.33

----------
method.summary: Half life in Sprague-Dawley rat at 5 mg/kg, po
Format: ADME, organism-based
recorded.conditions: in vivo
readout: half-life (h)

>>> quantitative_result("O=C(CN1CCN(C(=O)C2CC2)CC1)Nc1ccc(Oc2cc(=O)[nH]c3ccccc23)c(F)c1")
3.5

----------
method.summary: Cytotoxicity against rat NRK-49F cells assessed as cell survival rate at 10 uM incubated for 72 hrs by MTT assay
Type: cell-based
recorded.conditions: read-out: Activity
# viability at 72 h, 10 µM per record follows
readout: viability at 72 h, 10 µM (%)

>>> quantitative_result("O=C(CN1CCCCC1)Nc1ccc(Nc2cc(=O)[nH]c3ccccc23)cc1")
75.4
>>> quantitative_result("O=C(CN1CCN(C(=O)C2CC2)CC1)Nc1ccc(Oc2cc(=O)[nH]c3ccccc23)c(F)c1")
97.5
>>> quantitative_result("CCNCC(=O)Nc1ccc(Nc2cc(=O)[nH]c3ccccc23)cc1")
83.7
>>> quantitative_result("O=C(CN1CCOCC1)Nc1ccc(Sc2cc(=O)[nH]c3ccccc23)cc1")
77.4
>>> quantitative_result("O=C(CN1CCCCC1)Nc1ccc(Oc2cc(=O)[nH]c3ccccc23)cc1")
78.5
>>> quantitative_result("CCN(CC)CC(=O)Nc1ccc(Nc2cc(=O)[nH]c3ccccc23)cc1")
82.6
>>> quantitative_result("O=C(CN1CCCCC1)Nc1ccc(Oc2cc(=O)[nH]c3ccccc23)c(F)c1")
87.2
>>> quantitative_result("CC(C)(C)OC(=O)N1CCN(CC(=O)Nc2ccc(Oc3cc(=O)[nH]c4ccccc34)c(F)c2)CC1")
86.2
>>> quantitative_result("CN1CCN(CC(=O)Nc2ccc(Oc3cc(=O)[nH]c4ccccc34)c(F)c2)CC1")
99
>>> quantitative_result("CC1CCN(CC(=O)Nc2ccc(Oc3cc(=O)[nH]c4ccccc34)c(F)c2)CC1")
105
>>> quantitative_result("CC(=O)N1CCN(CC(=O)Nc2ccc(Nc3cc(=O)[nH]c4ccccc34)cc2)CC1")
72.5
>>> quantitative_result("CCN1CCN(CC(=O)Nc2ccc(Sc3cc(=O)[nH]c4ccccc34)cc2)CC1")
78
>>> quantitative_result("O=C(CNC1CCOCC1)Nc1ccc(Nc2cc(=O)[nH]c3ccccc23)cc1")
83.5
>>> quantitative_result("CC(=O)N1CCN(CC(=O)Nc2ccc(Oc3cc(=O)[nH]c4ccccc34)c(F)c2)CC1")
108
>>> quantitative_result("CN(C)C1CCN(CC(=O)Nc2ccc(Nc3cc(=O)[nH]c4ccccc34)cc2)CC1")
83.5
>>> quantitative_result("O=C(CN1CCNCC1)Nc1ccc(Oc2cc(=O)[nH]c3ccccc23)c(F)c1")
93.3
>>> quantitative_result("CN(C)C1CCN(CC(=O)Nc2ccc(Oc3cc(=O)[nH]c4ccccc34)c(F)c2)CC1")
98.6
>>> quantitative_result("CCNCC(=O)Nc1ccc(Sc2cc(=O)[nH]c3ccccc23)cc1")
87.7
>>> quantitative_result("O=C(CNC1CCOCC1)Nc1ccc(Sc2cc(=O)[nH]c3ccccc23)cc1")
83.9
>>> quantitative_result("CC(C)(C)N1CCN(CC(=O)Nc2ccc(Oc3cc(=O)[nH]c4ccccc34)cc2)CC1")
92.7
>>> quantitative_result("CCN1CCN(CC(=O)Nc2ccc(Oc3cc(=O)[nH]c4ccccc34)cc2)CC1")
91.7

----------
method.summary: Cytotoxicity against rat NRK-49F cells assessed as cell survival rate at 10 uM incubated for 72 hrs by MTT assay
Format: cell-based
recorded.conditions: read-out: Activity
Label condition met when viability at 72 h, 10 µM is strictly below 90%; otherwise label condition not met.

>>> assigned_label("CN1CCN(CC(=O)Nc2ccc(Nc3cc(=O)[nH]c4ccccc34)cc2)CC1")
"condition met"
>>> assigned_label("CCNCC(=O)Nc1ccc(Oc2cc(=O)[nH]c3ccccc23)c(F)c1")
"condition not met"
>>> assigned_label("CC(C)(C)N1CCN(CC(=O)Nc2ccc(Oc3cc(=O)[nH]c4ccccc34)c(F)c2)CC1")
"condition not met"
>>> assigned_label("CC1CCN(CC(=O)Nc2ccc(Oc3cc(=O)[nH]c4ccccc34)cc2)CC1")
"condition met"
>>> assigned_label("CCN(CC)CC(=O)Nc1ccc(Sc2cc(=O)[nH]c3ccccc23)cc1")
"condition met"
>>> assigned_label("O=C(CNC1CCOCC1)Nc1ccc(Oc2cc(=O)[nH]c3ccccc23)cc1")
"condition not met"
>>> assigned_label("O=C(CN1CCNCC1)Nc1ccc(Oc2cc(=O)[nH]c3ccccc23)cc1")
"condition not met"
>>> assigned_label("O=C(CN1CCCCC1)Nc1ccc(Sc2cc(=O)[nH]c3ccccc23)cc1")
"condition not met"
>>> assigned_label("O=C(CN1CCCC1)Nc1ccc(Oc2cc(=O)[nH]c3ccccc23)c(F)c1")
"condition not met"
>>> assigned_label("O=C(CN1CCOCC1)Nc1ccc(Oc2cc(=O)[nH]c3ccccc23)cc1")
"condition not met"
>>> assigned_label("CC(=O)N1CCN(CC(=O)Nc2ccc(Sc3cc(=O)[nH]c4ccccc34)cc2)CC1")
"condition not met"
>>> assigned_label("CC1CCN(CC(=O)Nc2ccc(Nc3cc(=O)[nH]c4ccccc34)cc2)CC1")
"condition met"
>>> assigned_label("CN1CCN(CC(=O)Nc2ccc(Sc3cc(=O)[nH]c4ccccc34)cc2)CC1")
"condition met"
>>> assigned_label("CN(C)C1CCN(CC(=O)Nc2ccc(Sc3cc(=O)[nH]c4ccccc34)cc2)CC1")
"condition met"
>>> assigned_label("CCN(CC)CC(=O)Nc1ccc(Oc2cc(=O)[nH]c3ccccc23)cc1")
"condition not met"
>>> assigned_label("O=C(CN1CCCC1)Nc1ccc(Nc2cc(=O)[nH]c3ccccc23)cc1")
"condition met"

----------
System: NRK-49F
method.summary: Inhibition of TGF-beta-induced collagen accumulation in rat NRK-49F cells at 10 uM incubated for 2 days by PSR staining based microscopic analysis relative to control
Type: functional
recorded.conditions: 48 h, time 2 day
readout: inhibition at 10 µM (%)

>>> quantitative_result("O=C(CN1CCN(C(=O)C2CC2)CC1)Nc1ccc(Oc2ccc3ccc(=O)[nH]c3c2)c(F)c1")
56.6
>>> quantitative_result("CC(=O)N1CCN(CC(=O)Nc2ccc(Sc3cc(=O)[nH]c4ccccc34)cc2)CC1")
39.4
>>> quantitative_result("CCN(CC)CC(=O)Nc1ccc(Nc2cc(=O)[nH]c3ccccc23)cc1")
44.2
>>> quantitative_result("CC1CCN(CC(=O)Nc2ccc(Oc3cc(=O)[nH]c4ccccc34)cc2)CC1")
31.5
>>> quantitative_result("O=C(CN1CCN(C(=O)C2CC2)CC1)Nc1ccc(Oc2ccc3[nH]c(=O)ccc3c2)c(F)c1")
34.6
>>> quantitative_result("O=C(CN1CCCCC1)Nc1ccc(Sc2cc(=O)[nH]c3ccccc23)cc1")
28.4
>>> quantitative_result("CC(C)(C)N1CCN(CC(=O)Nc2ccc(Oc3cc(=O)[nH]c4ccccc34)cc2)CC1")
73.2
>>> quantitative_result("CN(C)C1CCN(CC(=O)Nc2ccc(Oc3cc(=O)[nH]c4ccccc34)cc2)CC1")
43.9
>>> quantitative_result("CN(C)C1CCN(CC(=O)Nc2ccc(Oc3cc(=O)[nH]c4ccccc34)c(F)c2)CC1")
60.7
>>> quantitative_result("CN1CCN(CC(=O)Nc2ccc(Oc3cc(=O)[nH]c4ccccc34)c(F)c2)CC1")
73.9
>>> quantitative_result("CCNCC(=O)Nc1ccc(Oc2cc(=O)[nH]c3ccccc23)cc1")
25.4
>>> quantitative_result("CC(C)(C)OC(=O)N1CCN(CC(=O)Nc2ccc(Sc3cc(=O)[nH]c4ccccc34)cc2)CC1")
72.4
>>> quantitative_result("CC1CCN(CC(=O)Nc2ccc(Nc3cc(=O)[nH]c4ccccc34)cc2)CC1")
20.1
>>> quantitative_result("CC(C)(C)N1CCN(CC(=O)Nc2ccc(Oc3ccc4[nH]c(=O)ccc4c3)c(F)c2)CC1")
61.5
>>> quantitative_result("O=C(CN1CCCC1)Nc1ccc(Oc2cc(=O)[nH]c3ccccc23)cc1")
68
>>> quantitative_result("O=C(CN1CCOCC1)Nc1ccc(Sc2cc(=O)[nH]c3ccccc23)cc1")
53.4
>>> quantitative_result("O=C(CN1CCCC1)Nc1ccc(Nc2cc(=O)[nH]c3ccccc23)cc1")
59.9
>>> quantitative_result("CC(C)(C)N1CCN(CC(=O)Nc2ccc(Oc3cc(=O)[nH]c4ccccc34)c(F)c2)CC1")
78
>>> quantitative_result("O=C(CN1CCNCC1)Nc1ccc(Oc2cc(=O)[nH]c3ccccc23)cc1")
58.1
>>> quantitative_result("CCN1CCN(CC(=O)Nc2ccc(Oc3cc(=O)[nH]c4ccccc34)c(F)c2)CC1")
49.1
>>> quantitative_result("CN1CCN(CC(=O)Nc2ccc(Nc3cc(=O)[nH]c4ccccc34)cc2)CC1")
38.9
>>> quantitative_result("CN1CCN(CC(=O)Nc2ccc(Oc3cc(=O)[nH]c4ccccc34)cc2)CC1")
43.7
>>> quantitative_result("CC(C)(C)OC(=O)N1CCN(CC(=O)Nc2ccc(Oc3cc(=O)[nH]c4ccccc34)cc2)CC1")
76.2
>>> quantitative_result("O=C(CN1CCOCC1)Nc1ccc(Nc2cc(=O)[nH]c3ccccc23)cc1")
40.9
>>> quantitative_result("CC(C)(C)OC(=O)N1CCN(CC(=O)Nc2ccc(Oc3ccc4[nH]c(=O)ccc4c3)c(F)c2)CC1")
57.4
>>> quantitative_result("CCN1CCN(CC(=O)Nc2ccc(Oc3cc(=O)[nH]c4ccccc34)cc2)CC1")
41.7
>>> quantitative_result("O=C(CN1CCCC1)Nc1ccc(Oc2cc(=O)[nH]c3ccccc23)c(F)c1")
49.5
>>> quantitative_result("CN(C)C1CCN(CC(=O)Nc2ccc(Nc3cc(=O)[nH]c4ccccc34)cc2)CC1")
50.2
>>> quantitative_result("CCN(CC)CC(=O)Nc1ccc(Sc2cc(=O)[nH]c3ccccc23)cc1")
58.6
>>> quantitative_result("CCN1CCN(CC(=O)Nc2ccc(Nc3cc(=O)[nH]c4ccccc34)cc2)CC1")
46
>>> quantitative_result("O=C(CN1CCCCC1)Nc1ccc(Oc2cc(=O)[nH]c3ccccc23)c(F)c1")
38.3
>>> quantitative_result("CC(C)(C)OC(=O)N1CCN(CC(=O)Nc2ccc(Nc3cc(=O)[nH]c4ccccc34)cc2)CC1")
73.3
>>> quantitative_result("O=C(CN1CCCCC1)Nc1ccc(Oc2cc(=O)[nH]c3ccccc23)cc1")
27.4
>>> quantitative_result("O=C(CNC1CCOCC1)Nc1ccc(Nc2cc(=O)[nH]c3ccccc23)cc1")
50
>>> quantitative_result("CC(C)(C)OC(=O)N1CCN(CC(=O)Nc2ccc(Oc3ccc4ccc(=O)[nH]c4c3)c(F)c2)CC1")
76.4
>>> quantitative_result("O=C(CN1CCN(C(=O)C2CC2)CC1)Nc1ccc(Oc2cc(=O)[nH]c3ccccc23)c(F)c1")
87.5
>>> quantitative_result("CCN1CCN(CC(=O)Nc2ccc(Sc3cc(=O)[nH]c4ccccc34)cc2)CC1")
56.6
>>> quantitative_result("CC(=O)N1CCN(CC(=O)Nc2ccc(Nc3cc(=O)[nH]c4ccccc34)cc2)CC1")
39
>>> quantitative_result("CN1CCN(CC(=O)Nc2ccc(Sc3cc(=O)[nH]c4ccccc34)cc2)CC1")
40
